experiment: SUPPLEMENTARY: Lipophilicity (log D) Determination by high-throughput shake-flask; format: physicochemical; conditions: octanol/water
Readout: logD
Please state the value as a number alone, without comment.

Incoming: Give reported logD value for `COc1ccc(Cl)cc1S(=O)(=O)c1nn(C)c2ccc(C(=O)Nc3ccc(CC(=O)O)cc3)cc12`
Outgoing: 0.12

Incoming: Provide one value: measured logD of `COc1ccc(Cl)cc1S(=O)(=O)N(C)c1cc(C(=O)Nc2nc(CC(=O)O)cs2)cc2c1OCCO2`
Outgoing: -0.18

Incoming: Give me measured logD, please, for this molecule: `COc1ccc(Cl)cc1S(=O)(=O)c1c[nH]c2ccc(C(=O)Nc3nc(CC(=O)O)cs3)cc12`
Outgoing: -0.02

Incoming: Please report logD for the following molecule: `O=C1CCC(=O)N1c1cccc(-c2n[nH]c([C@H]3CCCCN3C(=O)COc3ccccc3)n2)c1`
Outgoing: 1.51

Incoming: Assign logD to the following record: `COc1ccc(Cl)cc1S(=O)(=O)N1COc2ccc(C(=O)Nc3nc(CC(=O)O)cs3)cc21`
Outgoing: 0.13

Incoming: Supply measured logD of `COc1ccc(Cl)cc1S(=O)(=O)N1CCc2ccc(C#Cc3ccc(C(=O)O)cc3)cc21` in your reply.
Outgoing: 3.3

Incoming: Write down logD measured for item `COc1ccc(Cl)cc1S(=O)(=O)N1CCSc2ccc(C(=O)Nc3nc(CC(=O)O)cs3)cc21`
Outgoing: 0.39

Incoming: Give reported logD value for `CCCN(c1cc(C(=O)Nc2ncc(CC(=O)O)s2)cc2c1OCO2)S(=O)(=O)c1cc(Cl)ccc1OC`
Outgoing: 2.74

Incoming: State its logD: `O=C(COc1ccccc1)N1CCCC[C@@H]1c1noc(-c2ccc3[nH]c(=O)c(=O)[nH]c3c2)n1`
Outgoing: 2.25

Incoming: Look up and state reported logD for `CCN(CC)C(=O)c1nc([C@H]2CCCCN2C(=O)COc2ccccc2)no1`
Outgoing: 2.36

Incoming: Note down logD recorded for `CC(=O)Nc1cccc(-n2nnc([C@H]3CCCCN3C(=O)COc3ccccc3)n2)c1`
Outgoing: 3

Incoming: Tell me its logD given `CCNC(=O)Nc1cccc(-c2n[nH]c([C@H]3CCCCN3C(=O)COc3ccccc3)n2)c1` as the entry.
Outgoing: 2.84

Incoming: Please report the measured logD for `N#Cc1ccc(-c2nc([C@H]3CCCCN3C(=O)COc3ccccc3)no2)cn1`
Outgoing: 2.54

Incoming: Name the recorded logD of the item `O=C(COc1ccccc1)N1CCCC[C@@H]1c1nc(-c2cccnc2)cs1` in your answer.
Outgoing: 3.15

Incoming: For the molecule COc1ccc(Cl)cc1S(=O)(=O)N1CC(C(=O)O)Oc2ccc(C(=O)Nc3ccc(F)cc3)cc21 (stereo not drawn) , give its measured logD value.
Outgoing: -0.22

Incoming: State, in one line, measured logD of `Cc1nn(C)c(-c2noc([C@H]3CCCCN3C(=O)COc3ccccc3)n2)c1Cl`
Outgoing: 3.61

Incoming: For the molecule `O=C1Cc2ccc(-c3n[nH]c([C@H]4CCCCN4C(=O)COc4ccccc4)n3)cc2N1` , report logD.
Outgoing: 2.35
